These data points were gathered from PubChem BioAssay (NCATS).

System: UISO
Assay: qHTS assay to identify novel small-molecules to repurpose for Merkel cell carcinoma treatment (AID 1296009); further: nearly all actives have a fitted effect of over 60% in size
Details: MCC and control cell lines, CellTiter-Glo viability, 72 h; series mostly up to 46 µM
Inconclusive results are not listed. Activity calls are given as the source filed them. The call rests on the fitted dose curve; in most records, active means well fitted inhibition curve with a large enough effect; inconclusive means small, poorly fitted or top-dose-only effect; inactive means flat fitted curve, though single readings scatter.
Hi! Could you answer with just one of these? y (active), n (inactive)

Hi, do you know how Cc1ccc2nc(NCCN)c3ncc(C)n3c2c1 came out in this test?
y

Hi, do you know how C[C@H](CCC(=O)O)[C@H]1CCC2C3C[C@H](O)[C@@H]4C[C@H](O)CC[C@]4(C)C3CC[C@@]21C (stereo not given in full) came out in this test?
n

Hi, do you know how CN1C(C(=O)Nc2ccccn2)=C(O)c2sc(Cl)cc2S1(=O)=O came out in this test?
n

Hi, do you know how Oc1ccc([C@@H]2Oc3ccc(O)cc3[C@@H]3CCC[C@@H]32)cc1 came out in this test?
y

Hi, do you know how CC(N[C@H]1CCCC[C@H]1NC(=O)c1ccc(Cl)cc1)c1cccc2ccccc12 (stereo not given in full) came out in this test?
n

Hi, do you know how COc1ccc(Nc2nccc(NCCO)n2)cc1 came out in this test?
n

Hi, do you know how O=C1CSC(=O)N1C(CCc1ccncc1)COc1ccc(-c2cccc([N+](=O)[O-])c2)cc1 (stereo not given) came out in this test?
y

Hi, do you know how CC[C@H]1OC(=O)[C@H](C)[C@@H](O[C@H]2C[C@@](C)(OC)[C@@H](O)[C@H](C)O2)[C@H](C)[C@@H](O[C@@H]2O[C@H](C)C[C@H](N(C)C)[C@@H]2O)[C@](C)(OC)C[C@@H](C)C(=O)[C@H](C)[C@@H](O)[C@]1(C)O came out in this test?
n

Hi, do you know how CC(=O)N1CCN(c2ccc(OCc3nn(C)c(C)c3-c3cccc4c(CCCOc5cccc6ccccc56)c(C(=O)O)n(Cc5cccnc5)c34)cc2)CC1 came out in this test?
y

Hi, do you know how O=C(C=CC=Cc1ccc2c(c1)OCO2)N1CCCCC1 came out in this test?
n

* * *

Experiment: qHTS of pediatric cancer cell lines to identify multiple opportunities for drug repurposing: Confirmatory screen for U-2 OS cells (AID 1347122); further: potency means the concentration at half of the fitted maximal effect; nearly all actives have a fitted effect of over 65% in size
Details: U-2 OS osteosarcoma cell viability; series mostly up to 45.9 µM
Records with an inconclusive call do not appear. Activity calls are given as the source filed them. Calls follow the shape of the dose curve; as a rule, active = well fitted cell-killing curve with a large enough effect; inconclusive = small, poorly fitted or top-dose-only effect; inactive = no such curve, though single readings can be large or run the other way.
measurementKind: Potency

I am curious: what Potency value has been reported for O=C(C=CC#Cc1cccc(NS(=O)(=O)c2ccccc2)c1)NO ?
928 nM (active)

I am curious: what Potency value has been reported for C[C@@H](Oc1ccc2[nH]nc(C=Cc3cnn(CCO)c3)c2c1)c1c(Cl)cncc1Cl ?
2080 nM (active)

I am curious: what Potency value has been reported for CC(C)(O)Cn1c(NC(=O)c2ccc(-c3cn[nH]c3)s2)nc2cc(CN3CCOCC3)ccc21 ?
1170 nM (active)

I am curious: what Potency value has been reported for Cn1cc(-c2cnn3c(N)c(Br)c([C@H]4CCCNC4)nc23)cn1 ?
2930 nM (active)

* * *

Experiment: qHTS of pediatric cancer cell lines to identify multiple opportunities for drug repurposing: Confirmatory screen for TC32 cells (AID 1347118);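 further: potency means the concentration at half of the fitted maximal effect; cells exposed to compound for 48 h before the read; nearly all actives have a fitted effect of over 65% in size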
Settings: TC32 Ewing sarcoma cells viability qHTS; series mostly up to 45.9 µM
Records with an inconclusive call do not appear. Activity calls are given as the source filed them. Calls come from the whole dose curve; as a rule, active = well fitted cell-killing curve with a large enough effect; inconclusive = small, poorly fitted or top-dose-only effect; inactive = no such curve, though single readings can be large or run the other way. Residues, ends and D or L forms follow the SMILES beside them. *: point of attachment. Cbz = O=C(OCc1ccccc1)*
Provide the recorded Potency for the entries that follow.

I am curious: what Potency value has been reported for CCOC(=O)C1=C(C)NC(=S)NC1c1cccc(O)c1 (stereo not drawn) ?
3.69 µM (active)

I am curious: what Potency value has been reported for COc1cccc2c1C(=O)c1c(O)c3c(c(O)c1C2=O)C[C@@](O)(C(=O)CO)C[C@@H]3O[C@H]1C[C@H](N)[C@H](OC2CCCCO2)[C@H](C)O1 (stereo partly drawn) ?
0.465 µM (active)

I am curious: what Potency value has been reported for O=C(C=CC=Cc1ccc2c(c1)OCO2)N1CCCCC1 ?
10.4 µM (active)

I am curious: what Potency value has been reported for Cn1c(Nc2ccc(C(F)(F)F)cc2)nc2cc(Oc3ccnc(-c4ncc(C(F)(F)F)[nH]4)c3)ccc21 ?
0.928 µM (active)

I am curious: what Potency value has been reported for Cc1ncc(-c2ccnc(Nc3ccc(S(C)(=O)=O)cc3)n2)n1C(C)C ?
4.65 µM (active)

I am curious: what Potency value has been reported for CCc1cc(C(C)=NOCc2ccc(C3CCCCC3)c(C(F)(F)F)c2)ccc1CN1CC(C(=O)O)C1 ?
9.27 µM (active)

I am curious: what Potency value has been reported for CC(C=CC1=C(C)CCCC1(C)C)=CC=CC(C)=CC(=O)Nc1ccc(O)cc1 ?
2.14 µM (active)

I am curious: what Potency value has been reported for Nc1nc2c(c(=O)[nH]1)N(C=O)[C@H](CNc1ccc(C(=O)N[C@@H](CCC(=O)O)C(=O)O)cc1)CN2 ?
10.4 µM (active)

I am curious: what Potency value has been reported for O=C1NCCc2[nH]c(-c3ccncc3)cc21 ?
4.14 µM (active)

I am curious: what Potency value has been reported for Cc1nc(NC(=O)N2CCC[C@@H]2C(N)=O)sc1-c1ccnc(C(C)(C)C(F)(F)F)c1 ?
5.22 µM (active)

I am curious: what Potency value has been reported for COc1cc([C@@H]2c3cc4c(cc3[C@@H](O[C@@H]3O[C@@H]5CO[C@@H](c6cccs6)O[C@@H]5[C@H](O)[C@@H]3O)[C@H]3COC(=O)[C@H]23)OCO4)cc(OC)c1O ?
0.131 µM (active)

I am curious: what Potency value has been reported for CC(C)C[C@@H](C=O)NC(=O)[C@H](CC(C)C)NC(=O)[C@H](CC(C)C)NC(=O)OCc1ccccc1 (Cbz-Leu-Leu-Leu-aldehyde) ?
0.827 µM (active)

I am curious: what Potency value has been reported for CCC(C=C[C@@H]1OC(=O)C=C[C@H]1C)=C[C@H](C)CC=CC(C)=C[C@@H](C)C(=O)[C@@H](C)[C@H](O)[C@@H](C)CC(C)=CC(=O)O ?
0.0144 µM (active)
